Recorded TGI by entry
Test system: MOLT-4 leukemia
ASSAY TEXT: NCI tumour cell line growth inhibition, 48 h

Worked examples follow.
[
  {
    "MOLECULE": "CC1CC2=C(C(=O)O1)C(c1ccccc1)Nc1ccccc1N2 (centres undefined)",
    "TGI": "> 100 µM"
  },
  {
    "MOLECULE": "O=C1/C(=C\\c2ccc(Br)cc2)CN(C(=O)c2ccccc2F)C/C1=C\\c1ccc(Br)cc1",
    "TGI": "> 29.5 µM"
  },
  {
    "MOLECULE": "COc1ccc2c(c1)N(CCO)C1=C(C(=O)OC1)C2c1cc(OC)c(OC)c(OC)c1 (centres undefined)",
    "TGI": "> 50 µM"
  }
]

Query block: What TGI appears in the records for this molecule with MOLT-4 leukemia? "Cc1sccc1C(=S)Nc1ccc(Cl)c(/C=N/OC(C)(C)C)c1"
Result block: 30.7 µM

Query block: Reported TGI for MOLT-4 leukemia, given COc1ccc(C23c4ccc(OC)cc4CC2(c2ccc([N+](=O)[O-])cc2)Cc2cc(OC)ccc23)cc1 (centres undefined) ?
Result block: > 69.2 µM

Query block: What reported TGI corresponds to "CN(C)CCCNC(=O)CCNC(=O)c1cc(NC(=O)c2cc(NC(=O)c3cc(NC(=O)CCCNC(=O)c4cc(NC(=O)c5cc(NC(=O)c6nccn6C)cn5C)cn4C)cn3C)cn2C)cn1C" on MOLT-4 leukemia?
Result block: > 100 µM

Query block: Provide value of TGI for this record tested with MOLT-4 leukemia: "O=C1/C(=C/c2ccc3c(c2)CCC3)Cc2cc3c(cc21)CCC3"
Result block: > 100 µM

Query block: # get_value(readout= TGI, system= MOLT-4 leukemia) for "COc1c(Br)cc(Br)c(OC)c1-c1ccc[nH]1"
Result block: > 100 µM

Query block: Reported TGI for MOLT-4 leukemia, given O=C(c1ccccc1)N1C2C3CC(OCc4ccccc4)(OCc4ccccc4)C(O3)C21 (centres undefined) ?
Result block: > 100 µM
